Entry source: paper PMC5882164

molecular target: CYP2B6 (Homo sapiens)
Sequence (P20813 whole entry): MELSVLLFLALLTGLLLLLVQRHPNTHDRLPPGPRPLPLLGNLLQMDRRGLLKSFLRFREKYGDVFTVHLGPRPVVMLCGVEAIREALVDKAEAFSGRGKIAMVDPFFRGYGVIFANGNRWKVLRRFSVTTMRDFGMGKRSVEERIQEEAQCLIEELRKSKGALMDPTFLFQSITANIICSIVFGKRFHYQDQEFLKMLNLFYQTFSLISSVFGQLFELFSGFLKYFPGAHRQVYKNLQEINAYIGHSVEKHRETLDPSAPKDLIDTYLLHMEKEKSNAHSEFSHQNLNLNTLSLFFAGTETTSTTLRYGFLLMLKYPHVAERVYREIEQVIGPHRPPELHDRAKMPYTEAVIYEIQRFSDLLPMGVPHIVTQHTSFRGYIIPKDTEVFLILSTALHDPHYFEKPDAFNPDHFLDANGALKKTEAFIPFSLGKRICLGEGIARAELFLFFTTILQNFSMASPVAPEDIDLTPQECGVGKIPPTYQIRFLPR
readout_label: IC50

Query: # query: IC50 of entry "C[C@@H](N[C@H]1CCN(c2ccc(CC(=O)O)cc2)C1)c1cccc2ccccc12"
Response: > 50 µM

###

biological target: CYP2E1 (Homo sapiens)
Sequence (P05181 whole entry): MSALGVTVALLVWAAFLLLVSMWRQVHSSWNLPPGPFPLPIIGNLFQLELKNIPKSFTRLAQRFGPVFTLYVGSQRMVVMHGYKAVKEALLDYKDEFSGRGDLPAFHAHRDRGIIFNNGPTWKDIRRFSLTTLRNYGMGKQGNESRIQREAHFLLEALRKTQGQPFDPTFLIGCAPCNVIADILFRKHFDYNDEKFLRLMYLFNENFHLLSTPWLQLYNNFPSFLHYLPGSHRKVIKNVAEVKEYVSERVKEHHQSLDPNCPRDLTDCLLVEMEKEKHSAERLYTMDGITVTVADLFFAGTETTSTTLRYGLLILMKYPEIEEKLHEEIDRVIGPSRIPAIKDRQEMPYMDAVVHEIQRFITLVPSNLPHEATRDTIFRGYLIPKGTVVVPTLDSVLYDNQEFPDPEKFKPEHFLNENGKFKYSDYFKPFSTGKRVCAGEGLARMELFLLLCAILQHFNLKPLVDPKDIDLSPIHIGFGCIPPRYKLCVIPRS
readout_label: IC50

Query: Data request, read-out IC50, for "C[C@@H](N[C@H]1CCN(c2ccc(CC(=O)O)cc2)C1)c1cccc2ccccc12"
Response: > 50 µM

###

experiment: Pharmacokinetics of evocalcet after oral administration to male rats; conditions: rat, in vivo, po, 1 mg/kg, AUC0-∞
readout_label: AUC(0-inf)
Enter the number, and then the unit.

Query: Sample "C[C@@H](N[C@H]1CCN(c2ccc(CC(=O)O)cc2)C1)c1cccc2ccccc12" — what was its AUC(0-inf)?
Response: 7890 ng·h/mL
